# ASSAYED_SYSTEM: Ba/F3-EGFR L861Q cells (Homo sapiens, UniProt P00533, L861Q, cells depend on it)
# Sequence (P00533 whole entry L861Q): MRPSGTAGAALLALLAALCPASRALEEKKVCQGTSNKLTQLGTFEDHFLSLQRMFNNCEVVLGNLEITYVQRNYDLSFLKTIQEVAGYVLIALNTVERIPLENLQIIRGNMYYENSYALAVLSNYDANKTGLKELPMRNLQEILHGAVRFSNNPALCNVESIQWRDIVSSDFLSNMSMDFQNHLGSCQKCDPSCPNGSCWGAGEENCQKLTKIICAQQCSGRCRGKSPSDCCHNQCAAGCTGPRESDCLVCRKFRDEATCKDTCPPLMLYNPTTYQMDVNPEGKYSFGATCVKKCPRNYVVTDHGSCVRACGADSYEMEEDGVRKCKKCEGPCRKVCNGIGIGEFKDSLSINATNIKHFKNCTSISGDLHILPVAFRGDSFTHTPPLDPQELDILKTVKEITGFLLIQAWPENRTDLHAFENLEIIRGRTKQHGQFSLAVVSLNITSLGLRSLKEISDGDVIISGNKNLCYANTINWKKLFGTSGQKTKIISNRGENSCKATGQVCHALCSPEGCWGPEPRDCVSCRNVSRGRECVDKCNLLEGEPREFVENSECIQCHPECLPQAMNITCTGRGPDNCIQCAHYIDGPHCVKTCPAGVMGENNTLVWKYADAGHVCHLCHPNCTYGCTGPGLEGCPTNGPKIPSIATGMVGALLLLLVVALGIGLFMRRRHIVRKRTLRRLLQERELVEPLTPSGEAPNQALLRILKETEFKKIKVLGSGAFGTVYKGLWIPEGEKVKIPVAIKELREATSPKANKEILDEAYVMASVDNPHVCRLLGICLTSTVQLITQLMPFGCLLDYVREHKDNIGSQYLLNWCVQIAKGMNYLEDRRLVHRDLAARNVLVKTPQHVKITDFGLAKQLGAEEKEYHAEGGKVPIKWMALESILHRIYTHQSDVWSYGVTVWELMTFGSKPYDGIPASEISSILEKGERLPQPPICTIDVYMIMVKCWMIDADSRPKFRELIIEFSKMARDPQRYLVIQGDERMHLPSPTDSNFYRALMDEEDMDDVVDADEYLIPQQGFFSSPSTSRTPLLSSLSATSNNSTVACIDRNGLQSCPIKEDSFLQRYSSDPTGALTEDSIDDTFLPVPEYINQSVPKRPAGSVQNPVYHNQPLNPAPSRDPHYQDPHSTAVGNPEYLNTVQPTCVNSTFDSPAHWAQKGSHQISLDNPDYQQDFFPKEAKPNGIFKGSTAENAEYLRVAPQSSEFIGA
# ASSAY_REMARKS: Ba/F3 cell survival assay, EGFR L861Q
# Assay type: cell-based
# COND: classical activating and rare EGFR mutations; Table 7; read-out: BA/F3 (EGFR L861Q) IC50
QUANTITY: GI50 (nM)

* COc1c(Cl)cccc1Nc1c(-c2ccncc2OCCC2CCCCO2)[nH]c2c1C(=O)N[C@H](C)C2 (single isomer, unassigned) | 33.4
* COCC(C)Oc1cnccc1-c1[nH]c2c(c1Nc1cccc(Cl)c1OC)C(=O)N[C@@H]1CCC[C@H]21 (single isomer, unassigned) | 14.9
* COc1c(Cl)cccc1Nc1c(-c2ccncc2OCC2COCCO2)[nH]c2c1C(=O)NCC2C (single isomer, unassigned) | 31.8
* Cc1c(Cl)cccc1Nc1c(-c2ccncc2OCC2COCCO2)[nH]c2c1C(=O)NCC2C (single isomer, unassigned) | 53.6
* COc1c(Cl)cccc1Nc1c(-c2ccncc2OCCC(C)OC)[nH]c2c1C(=O)N[C@H](C)C2 (single isomer, unassigned) | 11.2
* COc1c(Cl)cccc1Nc1c(-c2ccncc2OC[C@@H]2CCCO2)[nH]c2c1C(=O)NC1(CC1)C2 | 45

# credit: patent US20230064983A1
